- System: A498 renal
- measurement_protocol: NCI-60 one-dose screen, 48 h (100 = growth as untreated, 0 = no growth, -100 = all killed)
- experimental_conditions: 10 µM
- Procedure: Growth inhibition of the A498 human tumor cell line is measured as a screen for anti-cancer activity. Cells are grown in 96 well plates and exposed to the test compound for 48 hours. Compounds are tested at a single concentration, which is 10^-5 M for most compounds. The reported endpoint is percent growth (GI% or GIPRCNT), where numbers from 0 - 100% represent growth inhibition, and numbers from -100% - 0 represent cell death. For example, a value of 40 represents 60% growth inhibition. […]
About 83,000 compounds went through this panel and 20% of them were active in at least one assay; those are over-represented in the sample as a whole. Activity calls are given as the source filed them. How the source made its calls: active means growth percent below 10; inactive means the rest.
Recorded growth values for a group of compounds are listed next.

{"compound": "CC1(C)N=C(N)N=C(N)N1c1ccc(Cl)cc1", "system": "A498 renal", "growth": "120% (inactive)"}
{"compound": "OCCN(CCO)C(=S)S", "system": "A498 renal", "growth": "114% (inactive)"}
{"compound": "CCN(CC)C(=O)/C=C(/C)c1ccccc1", "system": "A498 renal", "growth": "86.6% (inactive)"}
{"compound": "CCOc1ccc(/C=N/N=C(N)N)cc1OCC", "system": "A498 renal", "growth": "101% (inactive)"}
{"compound": "N#C/C(=C\\c1cc(O)c(O)c(O)c1)C(N)=O", "system": "A498 renal", "growth": "119% (inactive)"}
{"compound": "Cc1nc2ccccc2c(C(=O)O)c1O", "system": "A498 renal", "growth": "117% (inactive)"}
{"compound": "COc1ccccc1NC(=O)C1=C(C)NC(C)=C(C(=O)Nc2ccccc2OC)C1c1cccc([N+](=O)[O-])c1", "system": "A498 renal", "growth": "128% (inactive)"}
{"compound": "N#CC(=Nc1cccc(F)c1)C1=C(O)c2ccccc2C1=O", "system": "A498 renal", "growth": "79.4% (inactive)"}
{"compound": "Cc1ccc(O)c(C(=O)c2ccccc2)c1", "system": "A498 renal", "growth": "78.7% (inactive)"}
{"compound": "CNC(=S)NC(C)(C)C", "system": "A498 renal", "growth": "112% (inactive)"}
{"compound": "CCOC(=O)c1[nH]c(C)c(C(=O)O)c1C", "system": "A498 renal", "growth": "102% (inactive)"}
{"compound": "CC(=O)c1ccc(C(C)(C)C)cc1", "system": "A498 renal", "growth": "123% (inactive)"}
{"compound": "CC(=O)Cc1cc(-c2cc(CC(C)=O)[nH]n2)n[nH]1", "system": "A498 renal", "growth": "99.3% (inactive)"}
{"compound": "COC(=O)Nc1cccc(Cl)c1OC", "system": "A498 renal", "growth": "61.9% (inactive)"}
{"compound": "COc1ccc2c(NCCCCCCCCNc3c4ccccc4nc4cc(OC)ccc34)c3ccccc3nc2c1", "system": "A498 renal", "growth": "-88.6% (active)"}
{"compound": "CC1Cc2ccccc2O1 (configuration not stated)", "system": "A498 renal", "growth": "115% (inactive)"}
{"compound": "O=S(=O)(O)c1cc(O)c2c(N=Cc3ccccc3O)c(S(=O)(=O)O)ccc2c1", "system": "A498 renal", "growth": "107% (inactive)"}
{"compound": "CC(=O)c1c[nH]c2ccccc12", "system": "A498 renal", "growth": "103% (inactive)"}
{"compound": "O=C(O)C(Cc1ccccc1)C(=O)O", "system": "A498 renal", "growth": "89.1% (inactive)"}
{"compound": "C/C(=N/NC(N)=O)c1ccco1", "system": "A498 renal", "growth": "111% (inactive)"}
{"compound": "COc1ccc(C(=O)C(Br)C(Br)C(=O)O)cc1 (configuration not stated)", "system": "A498 renal", "growth": "101% (inactive)"}
{"compound": "CC1(C)OC(=O)C(c2ccsc2)C(=O)O1", "system": "A498 renal", "growth": "113% (inactive)"}
{"compound": "c1ncc2[nH]cnc2n1", "system": "A498 renal", "growth": "79.1% (inactive)"}
{"compound": "CCN(CC)c1ccc2nc3ccc(=[N+](CC)CC)cc-3oc2c1", "system": "A498 renal", "growth": "74.4% (inactive)"}
{"compound": "COc1cc(C(=O)N/N=C/c2cccc([N+](=O)[O-])c2)cc(OC)c1OC", "system": "A498 renal", "growth": "26.3% (inactive)"}
{"compound": "O=C1c2ccccc2C(=O)N1OCc1ccccc1", "system": "A498 renal", "growth": "134% (inactive)"}
{"compound": "CN(C)CCN(Cc1ccccc1)c1ccccc1", "system": "A498 renal", "growth": "99% (inactive)"}

Data origin, for the record: PubChem BioAssay (NCI)
